# system: DLG4_2, P78352
# Sequence (P78352 155-259): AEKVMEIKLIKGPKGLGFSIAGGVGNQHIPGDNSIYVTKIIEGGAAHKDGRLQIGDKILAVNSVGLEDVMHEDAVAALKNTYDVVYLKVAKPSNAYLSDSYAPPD
# assayComment: holdup assay
# Parameters: key: below the threshold = too weak to quantify, mostly under pKd 3.1 to 4
# conditionLabel: plain residues with an end cap or a label only (N-terminal biotin on a linker: ttds)
Listed here are binders together with their documented pKd.

| binder | pKd |
| --- | --- |
| RTRQRNETQV [HPV51-E6, P26554] | 4.99 |
| SEKHFRETEV [HTLV1-TAX1, P03409] | 5.51 |
| DPRNTQTSQI [ABRAXAS2, Q15018] | 3.55 |
| LCALPKVTTV [AGMAT, Q9BSE5] | 5.29 |

Measured values drawn from paper PMC9482650 for this set.
